Assay summary: Clinical pharmacokinetics in patients with GIST (noncompartmental)
Format: in vivo, human
Experimental setup: human, plasma; 50 mg QOD oral, fed; steady state (Cycle 1 Day 27); median (range)
Measured property: Tmax (h)
Report as a plain number; the unit h is understood.

Record request: Tmax value, item Cc1ccc(C(=O)Nc2ccc(CN3CCN(C)CC3)c(C(F)(F)F)c2)cc1C#Cc1cnc2[nH]ncc2c1 [Olverembatinib]
8

---

Assay summary: Clinical pharmacokinetics in patients with GIST (noncompartmental)
Format: in vivo, human
Experimental setup: human, plasma; oral doses ranging from 20 to 50 mg; read-out: mean t1/2
Method: Noncompartmental pharmacokinetic analysis was conducted via Phoenix WinNonlin software (version 6.4).
Measured property: half-life

Recorded half-life of Cc1ccc(C(=O)Nc2ccc(CN3CCN(C)CC3)c(C(F)(F)F)c2)cc1C#Cc1cnc2[nH]ncc2c1 , please.
1130 to 1620 min
